assay system: T1, STXBP5 peptide complexed with HLA-A*02:01 on T2 cells (human)
T1 construct: whole, on cells
run description: flow cytometry, peptide-loaded T2 cells;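 also: binding of single-chain Fv antibody constructs, raised in XenoMouse, to peptide-pulsed T2 cells measured by flow cytometry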
readout label: Signal/background

- binder: "18179-H7 (scFv, scFv in bacterial lysate, detected with anti-Flag M2) scFv: EVQLLESGGGLVQPGGSLRLSCAASGFTFSNAWMSWVRQAPGKGLEWVGRIKSKTYGGTTDYAAPVKGRFTISRDDSKNTLYLQMNSLKTEDTAVYYCTTPSYSGSYYNYFSVMDVWGQGTTVTVSSGGGGSGGGGSGGGGSELQMTQSPSSLSASVGDRVTITCRTSQSISSYLNWFQQKPGKAPKLLIFAASSLQSGVPSRFSGSGSGTDFTLTISSLQPEDFATYYCQQSYSSPFTFGPGTKVEIK"
  val: 1
- binder: "18089-D12 (scFv, scFv in bacterial lysate, detected with anti-Flag M2) scFv: EVQLLESGGGVVQPGRSLRLSCAASGFTFSTYGMHWVRQAPGKGLEWVAVISYDGSNKYYADSVKGRFTISRDDSKNTLYLQMNSLRAEDTAVYYCARGQLLTGYWGQGTLVTVSSGGGGSGGGGSGGGGSELVMTQSPSSLSASVGDRVTITCRASQGISNYLAWYQQKPGKVPKLLIYAASTLQSGVPSRFSGSGSGTDFTLTISSLQPEDVATYYCQKYNSAPFTFGPGTKVEIK"
  val: 1
- binder: "18181-E2 (scFv, scFv in bacterial lysate, detected with anti-Flag M2) scFv: EVQLLESGPGLVKPSQTLSLTCTVSGDSISSNPYYWSWIRQHPGKGLEWIGYISHSGSTYYNPSLKSRVTISVDTSKNQFSLNLTSVTAADTAVYYCARDRLWFGVLNYYYGMDVWGLGTTVTVSSGGGGSGGGGSGGGGSELVMTQSPLSLPVTPGEPASISCRSSQSLLHSSGYNYLDWYLQKPGQSPQLLIYLGSNRASGVPDRFSGSGSGTDFTLKISKVEAEDVGVYYCMQALQTPRTFGQGTKVDIK"
  val: 1.1
